biological target: Human immunodeficiency virus type 1 protease (Human immunodeficiency virus 1); assay: Anti-HIV-1 activity against mutant HIV-1 in MT-4 cells (mutation selected with ritonavir); type: functional, cell-based; conditions: MT4
experimental.endpoint: ED50 (µM)

- compound: "O=C(NC1c2ccccc2C[C@H]1O)[C@H](OCc1ccc(F)cc1)[C@H](O)[C@@H](O)[C@@H](OCc1ccc(F)cc1)C(=O)N[C@H]1c2ccccc2C[C@H]1O (stereo partly specified)"
  unit.symbol: "µM"
  readout.relation: "="
  test.result: 1.13
- compound: "O=C(NC1c2ccccc2C[C@H]1O)[C@H](OCc1c(F)cccc1F)[C@H](O)[C@@H](O)[C@@H](OCc1c(F)cccc1F)C(=O)N[C@H]1c2ccccc2C[C@H]1O (stereo partly specified)"
  unit.symbol: "µM"
  readout.relation: "="
  test.result: 1.39
- compound: "CNC(=O)[C@@H](NC(=O)[C@H](OCc1ccc(F)c(F)c1)[C@H](O)[C@@H](O)[C@@H](OCc1ccc(F)c(F)c1)C(=O)N[C@H](C(=O)NC)C(C)C)C(C)C"
  unit.symbol: "µM"
  readout.relation: "="
  test.result: 1.22
- compound: "CNC(=O)[C@@H](NC(=O)[C@H](OCc1ccc(F)cc1F)[C@H](O)[C@@H](O)[C@@H](OCc1ccc(F)cc1F)C(=O)N[C@H](C(=O)NC)C(C)C)C(C)C"
  unit.symbol: "µM"
  readout.relation: "="
  test.result: 1.89
- compound: "CNC(=O)[C@@H](NC(=O)[C@H](OCc1ccc(F)cc1)[C@H](O)[C@@H](O)[C@@H](OCc1ccc(F)cc1)C(=O)N[C@H](C(=O)NC)C(C)C)C(C)C"
  unit.symbol: "µM"
  readout.relation: "="
  test.result: 0.97
- compound: "CNC(=O)[C@@H](NC(=O)[C@H](OCc1ccccc1)[C@H](O)[C@@H](O)[C@@H](OCc1ccccc1)C(=O)N[C@H](C(=O)NC)C(C)C)C(C)C"
  unit.symbol: "µM"
  readout.relation: ">"
  test.result: 15

----------
Listed next: entries and their corresponding ED50.
molecular target: UniProt:Q72874; experiment: Anti-HIV-1 activity against Wild type virus in MT-4 cells; assay type: functional, cell-based; settings: MT4
experimental.endpoint: ED50 (nM)

- compound: "O=C(NC1c2ccccc2C[C@H]1O)[C@H](OCc1cccc(F)c1F)[C@H](O)[C@@H](O)[C@@H](OCc1cccc(F)c1F)C(=O)N[C@H]1c2ccccc2C[C@H]1O (some centres not stated)"
  study.system: "UniProt:Q72874"
  unit.symbol: "nM"
  test.result: 30
- compound: "O=C(NC1c2ccccc2C[C@H]1O)[C@H](OCc1ccc(F)cc1F)[C@H](O)[C@@H](O)[C@@H](OCc1ccc(F)cc1F)C(=O)N[C@H]1c2ccccc2C[C@H]1O (some centres not stated)"
  study.system: "UniProt:Q72874"
  unit.symbol: "nM"
  test.result: 110
- compound: "Cc1c(O)cccc1C(=O)N[C@@H](CSc1ccccc1)[C@H](O)CN1C[C@H]2CCCC[C@H]2C[C@H]1C(=O)NC(C)(C)C"
  study.system: "UniProt:Q72874"
  unit.symbol: "nM"
  test.result: 20
- compound: "CNC(=O)[C@@H](NC(=O)[C@H](OCc1cccc(F)c1F)[C@H](O)[C@@H](O)[C@@H](OCc1cccc(F)c1F)C(=O)N[C@H](C(=O)NC)C(C)C)C(C)C"
  study.system: "UniProt:Q72874"
  unit.symbol: "nM"
  test.result: 660
- compound: "O=C(NC1c2ccccc2C[C@H]1O)[C@H](OCc1cc(F)cc(F)c1)[C@H](O)[C@@H](O)[C@@H](OCc1cc(F)cc(F)c1)C(=O)N[C@H]1c2ccccc2C[C@H]1O (some centres not stated)"
  study.system: "UniProt:Q72874"
  unit.symbol: "nM"
  test.result: 50
- compound: "O=C(NC1c2ccccc2C[C@H]1O)[C@H](OCc1cccc(F)c1)[C@H](O)[C@@H](O)[C@@H](OCc1cccc(F)c1)C(=O)N[C@H]1c2ccccc2C[C@H]1O (some centres not stated)"
  study.system: "UniProt:Q72874"
  unit.symbol: "nM"
  test.result: 60
- compound: "CNC(=O)[C@@H](NC(=O)[C@H](OCc1ccc(F)c(F)c1)[C@H](O)[C@@H](O)[C@@H](OCc1ccc(F)c(F)c1)C(=O)N[C@H](C(=O)NC)C(C)C)C(C)C"
  study.system: "UniProt:Q72874"
  unit.symbol: "nM"
  test.result: 670
- compound: "CNC(=O)[C@@H](NC(=O)[C@H](OCc1cc(F)cc(F)c1)[C@H](O)[C@@H](O)[C@@H](OCc1cc(F)cc(F)c1)C(=O)N[C@H](C(=O)NC)C(C)C)C(C)C"
  study.system: "UniProt:Q72874"
  unit.symbol: "nM"
  test.result: 420
- compound: "O=C(NC1c2ccccc2C[C@H]1O)[C@H](OCc1c(F)cccc1F)[C@H](O)[C@@H](O)[C@@H](OCc1c(F)cccc1F)C(=O)N[C@H]1c2ccccc2C[C@H]1O (some centres not stated)"
  study.system: "UniProt:Q72874"
  unit.symbol: "nM"
  test.result: 60
- compound: "O=C(NC1c2ccccc2C[C@H]1O)[C@H](OCc1cc(F)ccc1F)[C@H](O)[C@@H](O)[C@@H](OCc1cc(F)ccc1F)C(=O)N[C@H]1c2ccccc2C[C@H]1O (some centres not stated)"
  study.system: "UniProt:Q72874"
  unit.symbol: "nM"
  test.result: 20
- compound: "CNC(=O)[C@@H](NC(=O)[C@H](OCc1c(F)cccc1F)[C@H](O)[C@@H](O)[C@@H](OCc1c(F)cccc1F)C(=O)N[C@H](C(=O)NC)C(C)C)C(C)C"
  study.system: "UniProt:Q72874"
  unit.symbol: "nM"
  test.result: 1350
- compound: "CNC(=O)[C@@H](NC(=O)[C@H](OCc1cccc(F)c1)[C@H](O)[C@@H](O)[C@@H](OCc1cccc(F)c1)C(=O)N[C@H](C(=O)NC)C(C)C)C(C)C"
  study.system: "UniProt:Q72874"
  unit.symbol: "nM"
  test.result: 680

----------
The entries below are paired with their reported ED50.
biological target: Human immunodeficiency virus type 1 protease (Human immunodeficiency virus 1) (UniProt Q72874); test: Anti-HIV-1 activity against mutant HIV-1 in MT-4 cells (mutation selected with saquinavir); type: functional, cell-based; conditions: MT4
experimental.endpoint: ED50 (nM)

- compound: "CNC(=O)[C@@H](NC(=O)[C@H](OCc1c(F)cccc1F)[C@H](O)[C@@H](O)[C@@H](OCc1c(F)cccc1F)C(=O)N[C@H](C(=O)NC)C(C)C)C(C)C"
  experimental.endpoint: "ED50"
  unit.symbol: "nM"
  test.result: 8140
- compound: "O=C(NC1c2ccccc2C[C@H]1O)[C@H](OCc1cccc(F)c1F)[C@H](O)[C@@H](O)[C@@H](OCc1cccc(F)c1F)C(=O)N[C@H]1c2ccccc2C[C@H]1O (stereo partly drawn)"
  experimental.endpoint: "ED50"
  unit.symbol: "nM"
  test.result: 50
- compound: "O=C(NC1c2ccccc2C[C@H]1O)[C@H](OCc1ccc(F)cc1F)[C@H](O)[C@@H](O)[C@@H](OCc1ccc(F)cc1F)C(=O)N[C@H]1c2ccccc2C[C@H]1O (stereo partly drawn)"
  experimental.endpoint: "ED50"
  unit.symbol: "nM"
  test.result: 370

----------
target: Human immunodeficiency virus type 1 protease (Human immunodeficiency virus 1) (UniProt Q72874); assay: Anti-HIV-1 activity against mutant HIV-1 in MT-4 cells (mutation selected with ritonavir); type: functional, cell-based; conditions: MT4
Decision: ED50 beneath 1 µM gives MET; ED50 meeting or exceeding 1 µM gives NOT MET.

- compound: "O=C(NC1c2ccccc2C[C@H]1O)[C@H](OCc1ccc(F)cc1F)[C@H](O)[C@@H](O)[C@@H](OCc1ccc(F)cc1F)C(=O)N[C@H]1c2ccccc2C[C@H]1O (stereo not given in full)"
  assigned.label: "NOT MET"
- compound: "CC(C)(C)NC(=O)[C@@H]1C[C@@H]2CCCC[C@@H]2CN1C[C@@H](O)[C@H](Cc1ccccc1)NC(=O)[C@H](CC(N)=O)NC(=O)c1ccc2ccccc2n1"
  assigned.label: "MET"
- compound: "CC(C)c1nc(CN(C)C(=O)N[C@H](C(=O)N[C@@H](Cc2ccccc2)C[C@H](O)[C@H](Cc2ccccc2)NC(=O)OCc2cncs2)C(C)C)cs1"
  assigned.label: "NOT MET"
- compound: "O=C(NC1c2ccccc2C[C@H]1O)[C@H](OCc1cc(F)cc(F)c1)[C@H](O)[C@@H](O)[C@@H](OCc1cc(F)cc(F)c1)C(=O)N[C@H]1c2ccccc2C[C@H]1O (stereo not given in full)"
  assigned.label: "NOT MET"
- compound: "O=C(NC1c2ccccc2C[C@H]1O)[C@H](OCc1ccc(F)c(F)c1)[C@H](O)[C@@H](O)[C@@H](OCc1ccc(F)c(F)c1)C(=O)N[C@H]1c2ccccc2C[C@H]1O (stereo not given in full)"
  assigned.label: "NOT MET"
